Catalogue of melting point values

molecule: CCNc1ccc(C)c(O)c1
melting point: 128 to 129 °C
--
molecule: N#Cc1cccc(CSc2nnc(-c3ccn4ncnc4c3)o2)c1
melting point: 196 to 197 °C
--
molecule: CCOC(=O)C1C(=O)C=C(OCC)CC1c1ccc(C)cc1 (stereo not given)
melting point: 75 to 77 °C
--
molecule: Cc1ccc(S(=O)(=O)OCC2Cc3c(Br)cccc3O2)cc1 (stereo not given)
melting point: 90 to 91 °C
--
molecule: COc1cccc2c1C(=O)NS2(=O)=O
melting point: 224 °C
--
molecule: COC(=O)c1ccc2c(CCCNc3ccccn3)nn(C)c2c1
melting point: 101 to 104 °C
--
molecule: N#Cc1c(C2CC2)nn(-c2c(Cl)cc(C(F)(F)F)cc2Cl)c1N
melting point: 197 to 199 °C
--
molecule: Cc1cc(C)n(-c2nc(Nc3ccc(-c4ccccc4)cc3)c3ccccc3n2)n1
melting point: 268 to 270 °C
--
molecule: C[C@]1(CN2CCN(N=Cc3cc4cc(C(F)(F)F)ccc4o3)CC2)Cn2cc([N+](=O)[O-])nc2O1
melting point: 190 to 192 °C
--
molecule: O=C(O)C(=O)c1ccc(OCCOc2ccc(Oc3ccccc3)cc2)cc1
melting point: 124 to 126 °C
--
molecule: Cc1c(SC(=S)N(C)C)sn(-c2ccccc2)c1=O
melting point: 158 to 160 °C
--
molecule: CC(C)(c1ccccc1)c1ccc(N)c([N+](=O)[O-])c1
melting point: 92 to 94 °C
--
molecule: CCN(CC)CCOc1ccc2c(c1)c(C(=O)OCc1ccccc1)c(C)n2C
melting point: 73 to 74 °C
--
molecule: O=C(NC(=O)c1ccccc1Cl)Nc1ccc(-n2cccc2)c(Cl)c1
melting point: 169 to 170 °C
--
molecule: CCCCCCSc1sc(-c2cc[nH]n2)c2c1C(=O)CC(C)(C)C2
melting point: 134 to 137 °C
--
molecule: CCOc1ccc(-n2c(-c3ccncc3)nc(SC)c(C#N)c2=O)cc1
melting point: 201 to 204 °C
--
molecule: CC(C)(C)NC(=O)Nc1ccc2oc3c(c2c1)CCCC3
melting point: 310 to 312 °C
--
molecule: O=C(CO)NNc1ccnc2c(NC(=O)c3c(Cl)cccc3Cl)cccc12
melting point: 248 to 250 °C
--
molecule: OCCn1c(NC2CCNCC2)nc2cccnc21
melting point: 157 °C
--
molecule: Cc1cc(SCc2cccc3nn(-c4ccc(C(F)(F)F)cc4)cc23)ccc1OC(C)(C)C(=O)O
melting point: 125 to 127 °C
--
molecule: O=C1c2cc(F)ccc2CCc2cccnc21
melting point: 78 to 81 °C
--
molecule: CCc1cc(C(=O)Nc2cc(Oc3ccc4nc(NC(=O)C5CC5)cn4n3)ccc2F)n(C)n1
melting point: 236 °C
--
molecule: Nc1cc(CN2CCC2)cc(C(F)(F)F)c1
melting point: 60 to 61 °C
--
molecule: CCCCCCC1CCC2C(CCC3CC(=O)CCC32)C1 (stereo not given)
melting point: 49 °C
--
molecule: CC(C)(C)P1(=O)c2ccccc2CN1c1ccccc1 (stereo not given)
melting point: 171 to 172 °C
--
molecule: CSc1nn2c(N)cc(C(C)C)nc2c1S(=O)(=O)c1ccccc1
melting point: 210 to 211 °C
--
molecule: CCN(CC)CCOc1cc(C(=O)NC(=N)N)c(C)c2ccc(OC)cc12
melting point: 135 °C
--
molecule: COC(=O)c1ccccc1NS(=O)(=O)c1ccc(C(=O)NCCc2ccccc2)cc1
melting point: 167 to 168 °C
--
molecule: COc1cc2c(cc(C(=O)OCc3ccccc3)n2CCC#N)c(C)c1C
melting point: 140 °C
--
molecule: CCCCn1cc(C(=O)Nc2nccs2)c2ccc(Cl)cc21
melting point: 168 to 169 °C
